# SUBJECT_OF_TEST: gH of HCMV strain TR (human cytomegalovirus strain TR)
# ASSAY: cell-based or functional assay
ASSAY_READOUT: IC50, neutralization of TR infection of MRC-5

>  <BINDER>
62-11 (antibody, V domains shown, also called NAb 62-11) VH: QVQLQQPGAELVRPGASVKLSCKASGYTFTSYWMNWVKQRPGQGLEWIGMIDPSDSETHYNQMFKDKATLTVDKSSSTAYMQLSSLTSEDSAVYYCSNGYSSFAYWGQGTLVTVSV VL: DVQMTQTTSSLSASLGDRVTISCSASQGISNYLNWYQQKPDGTVKLLIYDTSSLHSGVPSRFSGSGSGTDYSLTISNLEPEDIATYYCQQYSKLPYTFGGGTKLEIK

>  <RESULT>
3.35 µg/mL

$$$$
>  <BINDER>
62-100 (antibody, V domains shown, also called NAb 62-100) VH: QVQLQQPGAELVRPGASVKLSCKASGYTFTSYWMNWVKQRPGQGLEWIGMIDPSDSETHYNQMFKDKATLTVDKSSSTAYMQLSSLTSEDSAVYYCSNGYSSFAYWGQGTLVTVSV VL: DIVLTQSPATLSVTPGDSVSLSCRASQSISNNLHWYQQKSHESPRLLIKYASQSISGIPSRFSGSGSGTDFTLSINSVETEDFGKYVCQQSNSWPLTFGSGTKLEIK

>  <RESULT>
1.98 µg/mL

$$$$
>  <BINDER>
2-80 (antibody, V domains shown, also called NAb 2-80) VH: QIQLVQSGPELKKPGETVKISCKASGYTFTNFGMNWVKQAPGKGLKWMGWINTYTGEPTYADDFKGRFAFSLETSASTASLQINNLKNEDTATYFCARRGDGLYSMDYWGQGTSVTVSS VL: DIVLTQSPASLAVSLGQRATISCRASESIDSYGNSFMYWYQQKPGQPPKLLIYRASNLESGIPARFSGSGSRTDFTLTINPVEADDVATYYCQQSNEDPLTFGAGTKLELK

>  <RESULT>
1.72 µg/mL

$$$$
>  <BINDER>
21E9 (antibody, V domains shown, also called NAb 21E9) VH: QIQLVQSGPELKKPGETVKISCKASGYTFTIYGMNWVKQAPGKGLKWMGWINTYTGEPTYADDFRGRFAFSLETSASTAYLQINNLKNEDTATYFCARKGYYGSSGYFDYWGQGTTLTVSS VL: SIVMTQTPKFLLVSAGDRVTITCKASQSVSNDVSWYQQKPGQSPKLLIYYASNRYTGVPDRFTGSGYGTDFTFTISTVQAEDLAVYFCQQDYSSPWTFGGGTKLEIK

>  <RESULT>
4.14 µg/mL

$$$$
